ASSAY_COMMENT: soluble on expression in E. coli; label from the status in PepcDB or PDB records
PROPERTY_MEASURED: soluble on expression in E. coli

DDAENIEYKVSISGTSVELTCPLDSDENLKWEKNGQELPQKHDKHLVLQDFSEVEDSGYYVCYTPASNKNTYLYLKARVGSADDAKKDAAKKDDAKKDDAKKDGSQTNKAKRALEVLEAEDKVILKCNSSITLLQGTAGQEVSDNKTLNLGKRIEDPRGMYQCGENAKSFTLQVYYRM = soluble
MKLHEHQAKEIFAKYGIPVPEGKVAFSLKEAKEVAEELGEFPLVVKAQIHCGGRGKAGGVKIVKDMDELEKAVESLLGKVLKTFQCPDGKPVNRVLIEKATNIDKEYYLAITLDRSKSKPVIMASAAGGMEIEEIVKENPEAIIIETIDPELGLMPYQARELAFKLNLPVKEFASIALKLYQIYSDLDASLVEINPLVLTKEGNLIALDAKLDIDDNALFRHKDLEEMEDETQLPQLEVEAKKYGLNYIKLNGNIGCMVNGAGLAMATMDIIKLAGGEPANFLDVGGGANVEQIANAFRILMADPDVKAVFINIFGGILRVDRLAQGLIEASKMVELRVPIVARLEGTNVEEGKRMLQESGLNFIIAEDMWDGAKKAVEIANKQS = soluble
MPYIEKLELKGFKSYGNKKVVIPFSKGFTAIVGANGSGKSNIGDAILFVLGGLSAKAMRASRISDLIFAGSKNEPPAKYAEVAIYFNNEDRGFPIDEDEVVIRRRVYPDGRSSYWLNGRRATRSEILDILTAAMISPDGYNIVLQGDITKFIKMSPLERRLLIDDISGIAEYDSKKEKALEE = soluble

Provenance of the data: the DeepSol protein solubility set
